Source of measurements: patent US8309734B2

# Target Or System: human GPBAR1 receptor (Homo sapiens)
# Protocol Summary: functional cAMP assay in CHO-dhfr(minus) cells expressing human GPBAR1 receptors
# Particulars: cAMP increase (TR-FRET) in CHO-dhfr(minus) cells expressing human GPBAR1; compounds incubated 30 min at 30° C.
Observation Type: EC50

| Mol Smiles | Experimental Value |
| --- | --- |
| O=C(c1ccncc1Oc1ccc(Cl)cc1Cl)N1CCCc2cc(F)cc(F)c21 | 217 nM |
| Cc1ccc(Oc2ncccc2C(=O)N2CCCc3ccccc32)cc1Cl | 1010 nM |
| CCOC(=O)CCCN1CCN(C(=O)c2cc(F)cnc2Oc2cc(Cl)ccc2Cl)c2ccccc21 | 384 nM |
| O=C(c1ccncc1Oc1ccc(F)c(Cl)c1)N1CCCc2ccc(F)cc21 | 299 nM |
| COc1ncccc1N(C)C(=O)c1cc(F)cnc1Oc1cc(Cl)ccc1Cl | 29 nM |
| O=C1CCN(C(=O)c2cccnc2Oc2cc(Cl)ccc2Cl)c2ccccc21 | 918 nM |
| O=C(O)CCc1cc(Cl)c(Oc2ncccc2C(=O)N2CCN(C3CC3)c3ccccc32)cc1Cl | 47 nM |
| O=C(O)CN1CCN(C(=O)c2cccnc2Oc2cc(Cl)ccc2Cl)c2ccccc21 | 307 nM |

---

# Target Or System: human GPBAR1 receptor (Homo sapiens)
# Sequence (Q8TDU6 1-330): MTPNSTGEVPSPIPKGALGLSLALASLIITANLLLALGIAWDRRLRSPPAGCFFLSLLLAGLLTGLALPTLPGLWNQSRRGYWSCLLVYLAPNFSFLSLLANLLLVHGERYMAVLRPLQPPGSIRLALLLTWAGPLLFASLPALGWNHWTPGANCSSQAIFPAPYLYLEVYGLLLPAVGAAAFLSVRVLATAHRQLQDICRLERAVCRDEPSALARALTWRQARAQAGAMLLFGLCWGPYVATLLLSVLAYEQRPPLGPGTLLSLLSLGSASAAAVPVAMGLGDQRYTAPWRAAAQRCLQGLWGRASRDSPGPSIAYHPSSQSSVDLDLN
# Protocol Summary: functional cAMP assay in CHO-dhfr(minus) cells expressing human GPBAR1 receptors
# Particulars: cAMP increase (TR-FRET) in CHO-dhfr(minus) cells expressing human GPBAR1; compounds incubated 30 min at 30° C.
pEC50: −log10 of the molar value.
The following compounds are shown together with reported pEC50 values.

| Mol Smiles | pEC50 |
| --- | --- |
| CCN(C(=O)c1cccnc1Oc1cc(Cl)ccc1Cl)c1ccccc1 | 7.15 |
| O=C(c1cc(F)cnc1Oc1ccc(F)c(Cl)c1)N1CCCc2ccccc21 | 7.02 |
| CN(C(=O)c1ccncc1Oc1cc(Cl)ccc1Cl)c1ccccc1Cl | 6.80 |
| O=C(c1cccnc1Oc1cc(Cl)ccc1Cl)N1CCOc2c(F)cc(F)cc21 | 6.38 |
| CCc1ccccc1N(C)C(=O)c1cccnc1Oc1cc(Cl)ccc1Cl | 7.04 |
| O=C(c1cccnc1Oc1cc(Cl)ccc1Cl)N1CCN(CC2CC2)c2ccccc21 | 7.46 |
| Cc1cccc(N(C)C(=O)c2cccnc2Oc2cc(Cl)ccc2Cl)c1C | 6.41 |
| O=C(c1cc(F)cnc1Oc1cc(Cl)ccc1Cl)N1CCCc2ccccc21 | 7.89 |
| N#Cc1ccc(Oc2cc(Cl)ccc2Cl)c(C(=O)N2CCCc3ccccc32)c1 | 6.78 |

---

The following compounds are shown together with reported EC50 values.
# Target Or System: human GPBAR1 receptor (Homo sapiens, UniProt Q8TDU6)
# Construct: expressed in transfected cells
# Protocol Summary: functional cAMP assay in CHO-dhfr(minus) cells expressing human GPBAR1 receptors
# Assay type: cell-based
# Particulars: cAMP increase (TR-FRET) in CHO-dhfr(minus) cells expressing human GPBAR1; compounds incubated 30 min at 30° C.

| Mol Smiles | EC50 |
| --- | --- |
| COc1ncccc1N(C)C(=O)c1ccncc1Oc1ccc(Cl)cc1Cl | 703 nM |
| O=C(c1cc(F)cnc1Oc1cc(Cl)ccc1Cl)N1CCN(Cc2ccoc2)c2ccccc21 | 1070 nM |
| O=C(c1ccncc1Oc1ccc(Cl)cc1Cl)N1CCCc2ccc(F)cc21 | 328 nM |
| COC(=O)CNC(=O)c1cc(Cl)c(Oc2ncccc2C(=O)N2CCN(C3CC3)c3ccccc32)cc1Cl | 341 nM |
| CN(C(=O)c1cccnc1Oc1cc(Cl)ccc1Cl)c1ccccc1-c1ccnn1C | 1970 nM |
| O=C(c1ccncc1Oc1ccc(F)c(Cl)c1)N1CCCc2cc(F)ccc21 | 173 nM |
| O=C(c1cccnc1Oc1cc(Cl)ccc1Cl)N1CCCc2cc(Cl)ccc21 | 436 nM |
| O=C(c1cccnc1Oc1ccc(F)c(Cl)c1)N1CCCc2cc(F)c(F)cc21 | 127 nM |

---

# Target Or System: human GPBAR1 receptor (Homo sapiens)
# Sequence (Q8TDU6 1-330): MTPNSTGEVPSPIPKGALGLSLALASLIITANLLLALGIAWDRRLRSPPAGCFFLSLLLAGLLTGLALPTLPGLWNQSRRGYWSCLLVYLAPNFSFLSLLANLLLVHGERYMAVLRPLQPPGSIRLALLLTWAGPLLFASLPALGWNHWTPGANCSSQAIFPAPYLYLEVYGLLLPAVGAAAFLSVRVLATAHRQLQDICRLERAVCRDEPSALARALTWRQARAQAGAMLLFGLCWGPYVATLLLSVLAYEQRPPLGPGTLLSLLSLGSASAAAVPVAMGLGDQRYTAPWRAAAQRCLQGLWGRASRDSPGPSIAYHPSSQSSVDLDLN
# Protocol Summary: functional cAMP assay in CHO-dhfr(minus) cells expressing human GPBAR1 receptors
# Particulars: cAMP increase (TR-FRET) in CHO-dhfr(minus) cells expressing human GPBAR1; compounds incubated 30 min at 30° C.
pEC50: −log10 of the molar value.
So basically: pEC50 at 7 or higher? That is y. Lower than 7? That is n.

| Molecule | Assigned Category |
| --- | --- |
| CN(C(=O)c1ccncc1Oc1ccc(F)c(Cl)c1)c1ccccc1Cl [Example 107] | n |
| Cc1cccc(Cl)c1N(C)C(=O)c1cccnc1Oc1cc(Cl)ccc1Cl [Example 51] | y |
| O=C(c1cccnc1Oc1cc(Cl)ccc1Cl)N1CCCc2ccc(Cl)cc21 [Example 33] | n |
| O=C(c1cccnc1Oc1cc(Cl)c(Br)cc1Cl)N1CCN(C2CC2)c2ccccc21 [Example 163] | y |
| COc1ccccc1N(C)C(=O)c1cccnc1Oc1cc(Cl)ccc1Cl [Example 42] | y |
| O=C(c1cccnc1Oc1cc(Cl)c(Cl)cc1Cl)N1CCCc2ccccc21 [Example 14] | n |
| CCOC(=O)CN1CCN(C(=O)c2cc(F)cnc2Oc2cc(Cl)ccc2Cl)c2ccccc21 [Example 154] | y |
| COc1cccc2c1N(C(=O)c1cccnc1Oc1cc(Cl)ccc1Cl)CCC2 [Example 70] | n |
| O=C(O)CCNC(=O)CCc1cc(Cl)c(Oc2ncccc2C(=O)N2CCN(C3CC3)c3ccccc32)cc1Cl [Example 179] | y |
| O=C(c1cccnc1Oc1cc(Cl)ccc1Cl)N1CCC(N2CC(F)(F)C2)c2ccccc21 (stereo not drawn) [Example 130] | n |
| Cc1cccc(Oc2ncccc2C(=O)N2CCCc3ccccc32)c1 [Example 8] | n |
| Cc1ccccc1N(C)C(=O)c1ccncc1Oc1cc(Cl)ccc1Cl [Example 93] | y |
| O=C(c1ccccc1Oc1cc(Cl)ccc1Cl)N1CCCc2ccccc21 [Example 110] | y |
| CN(C(=O)c1cccnc1Oc1cc(Cl)ccc1Cl)c1cnccc1Cl [Example 47] | n |
| CC1CCc2ccccc2N1C(=O)c1cccnc1Oc1cc(Cl)ccc1Cl (stereo not drawn) [Example 67] | n |

---

# Target Or System: human GPBAR1 receptor (Homo sapiens, UniProt Q8TDU6)
# Protocol Summary: functional cAMP assay in CHO-dhfr(minus) cells expressing human GPBAR1 receptors
# Particulars: cAMP increase (TR-FRET) in CHO-dhfr(minus) cells expressing human GPBAR1; compounds incubated 30 min at 30° C.
pEC50: −log10 of the molar value.
Observation Type: pEC50

| Molecule | Experimental Value |
| --- | --- |
| O=C(O)C1CCCN1C(=O)CCc1cc(Cl)c(Oc2ncccc2C(=O)N2CCN(C3CC3)c3ccccc32)cc1Cl (stereo not shown) [Example 180] | 7.15 |
| CN(C(=O)c1cccnc1Oc1cc(Cl)ccc1Cl)c1ccccc1C1CC1 [Example 131] | 6.49 |
| O=C(O)C/C=C/c1cc(Cl)c(Oc2ncccc2C(=O)N2CCN(C3CC3)c3ccccc32)cc1Cl [Example 175] | 6.07 |
| Cc1cc(F)c2c(c1)CCCN2C(=O)c1ccccc1Oc1cc(Cl)ccc1Cl [Example 120] | 5.78 |

---

The following molecules are shown together with reported log10 of EC50 values.
# Target Or System: human GPBAR1 receptor (Homo sapiens)
# Protocol Summary: functional cAMP assay in CHO-dhfr(minus) cells expressing human GPBAR1 receptors
# Particulars: cAMP increase (TR-FRET) in CHO-dhfr(minus) cells expressing human GPBAR1; compounds incubated 30 min at 30° C.
Observation Type: log10 of EC50 (log10 of the value in nM)

| Molecule | Experimental Value |
| --- | --- |
| O=C(c1ccncc1Oc1cc(Cl)ccc1Cl)N1CCCc2ccc(F)cc21 | 1.28 |
| O=C(O)CCCc1cc(Cl)c(Oc2ncccc2C(=O)N2CCN(C3CC3)c3ccccc32)cc1Cl | 2.06 |
| O=C(c1cccnc1Oc1ccc(F)c(Cl)c1)N1CCCc2ncccc21 | 2.11 |
| CC1CCc2ccccc2N1C(=O)c1cc(F)ccc1Oc1cc(Cl)ccc1Cl (centres unmarked) | 2.98 |
| CC(C)CN1CCN(C(=O)c2cccnc2Oc2cc(Cl)ccc2Cl)c2ccccc21 | 2.30 |
| CCc1cccc(Oc2ncccc2C(=O)N2CCCc3ccccc32)c1 | 2.67 |
| O=C(c1cccnc1Oc1cc(Cl)c(C#CCO)cc1Cl)N1CCN(C2CC2)c2ccccc21 | 1.56 |
| CC(=O)OCCN1CCN(C(=O)c2cccnc2Oc2cc(Cl)ccc2Cl)c2ccccc21 | 2.41 |
